Experiment: NCI Yeast Anticancer Drug Screen. Data for the bub3 strain (AID 167)
Settings: S. cerevisiae bub3 mutant strain, at 50.0 µM, active compounds read high
This is part of a sample that, as a whole, favours compounds with a hit. Of some 79,000 tested, about 15% had one in any assay.
Could you please report measured growth inhibition for the items listed next?
Numbers only, in %.

Study these solved cases before continuing.
Cc1cccc2c1Oc1cc(Cl)ccc1C2NC(=O)CCN1CCCCC1 (configuration not stated)    -14.7
C=C1C(=O)OC2CC(C)C3C4OC4C(O)C3(C)C(O)C12 (configuration not stated)    71
Cc1ccccc1N=Nc1ccc(N=Nc2ccc(N)nc2N)c(C)c1    82.2
NNC(=O)c1ccc(NC(=O)CSc2nc3ccccc3s2)cc1    97.8
CCCCCCCCCCCCCCCCBr    99.5
C1=C(CN2CCCCC2)COc2ccccc21    59.8

We next turn to a different molecule, shown below.
Which growth inhibition value is on record for Cc1ccc(CC(=O)c2c(C)[nH]c3ccccc23)cc1C ?
92.5
